Sourced from patent US5412095A

Procedure Text: Solubility/dissolution of forms of terazosin monohydrochloride in distilled water (shaken, 0.45 µm filtered, UV at 254 nm)
Type: physicochemical
Condition Details: distilled water, water, 2 minutes, distilled water, 2 g in 5 mL; read-out: Solubility of Various Forms of Terazosin Monohydrochloride
Parameter: solubility at 2 min

Request: solubility at 2 min for COc1cc2nc(N3CCN(C(=O)C4CCCO4)CC3)nc(N)c2cc1OC (stereo not shown) [Form I] ?
Result: 289 mg/mL

----------
Procedure Text: Solubility/dissolution of forms of terazosin monohydrochloride in distilled water (shaken, 0.45 µm filtered, UV at 254 nm)
Format: physicochemical
Condition Details: distilled water, water, 0.5 minutes, distilled water, 2 g in 5 mL; read-out: Solubility of Various Forms of Terazosin Monohydrochloride
Parameter: solubility at 0.5 min (mg/mL)
Entry rule: numbers only, all in mg/mL.

Request: What does the data say about its solubility at 0.5 min? Entry: COc1cc2nc(N3CCN(C(=O)C4CCCO4)CC3)nc(N)c2cc1OC (stereo not shown) [Form I]
Result: 273

----------
Procedure Text: Solubility/dissolution of forms of terazosin monohydrochloride in distilled water (shaken, 0.45 µm filtered, UV at 254 nm)
Format: physicochemical
Condition Details: 1 minute, distilled water, 2 g in 5 mL; read-out: Solubility of Various Forms of Terazosin Monohydrochloride
Parameter: solubility at 1 min (mg/mL)
Form entry: value (mg/mL) — number only.

Request: Any idea what solubility at 1 min was measured for COc1cc2nc(N3CCN(C(=O)C4CCCO4)CC3)nc(N)c2cc1OC.Cl.O.O (stereo not shown) [Dihydrate] ?
Result: 30

----------
Procedure Text: Solubility/dissolution of forms of terazosin monohydrochloride in distilled water (shaken, 0.45 µm filtered, UV at 254 nm)
Assay type: physicochemical
Condition Details: 2 minutes, distilled water, 2 g in 5 mL; read-out: Solubility of Various Forms of Terazosin Monohydrochloride
Parameter: solubility at 2 min

Request: Item under review: COc1cc2nc(N3CCN(C(=O)C4CCCO4)CC3)nc(N)c2cc1OC.Cl.O.O (stereo not shown) [Dihydrate] . Reported solubility at 2 min?
Result: 27 mg/mL

----------
Procedure Text: Solubility/dissolution of forms of terazosin monohydrochloride in distilled water (shaken, 0.45 µm filtered, UV at 254 nm)
Type: physicochemical
Condition Details: 0.5 minutes, distilled water, 2 g in 5 mL; read-out: Solubility of Various Forms of Terazosin Monohydrochloride
Parameter: solubility at 0.5 min (mg/mL)
Report as a plain number; the unit mg/mL is understood.

Request: Field request: solubility at 0.5 min | item: COc1cc2nc(N3CCN(C(=O)C4CCCO4)CC3)nc(N)c2cc1OC.Cl.O.O (stereo not shown) [Dihydrate]
Result: 29

----------
Procedure Text: Solubility/dissolution of forms of terazosin monohydrochloride in distilled water (shaken, 0.45 µm filtered, UV at 254 nm)
Type: physicochemical
Condition Details: distilled water, water, 1 minute, distilled water, 2 g in 5 mL; read-out: Solubility of Various Forms of Terazosin Monohydrochloride
Parameter: solubility at 1 min
Lab note: write values as number then unit, every time.

Request: Would you kindly share the measured solubility at 1 min for COc1cc2nc(N3CCN(C(=O)C4CCCO4)CC3)nc(N)c2cc1OC (stereo not shown) [Form I] ?
Result: 283 mg/mL

----------
Procedure Text: Solubility/dissolution of forms of terazosin monohydrochloride in distilled water (shaken, 0.45 µm filtered, UV at 254 nm)
Type: physicochemical
Condition Details: water, rapidly reached; read-out: limit of solubility
Parameter: solubility

Request: Consider the molecule shown here: COc1cc2nc(N3CCN(C(=O)C4CCCO4)CC3)nc(N)c2cc1OC.Cl.O.O (stereo not shown) [Dihydrate] What is its recorded solubility?
Result: ~30 mg/mL

----------
Procedure Text: Solubility/dissolution of forms of terazosin monohydrochloride in distilled water (shaken, 0.45 µm filtered, UV at 254 nm)
Type: physicochemical
Condition Details: 4 minutes, distilled water, 2 g in 5 mL; read-out: Solubility of Various Forms of Terazosin Monohydrochloride
Parameter: solubility at 4 min (mg/mL)
// note: answer is a bare numeric in mg/mL

Request: # query: solubility at 4 min of entry COc1cc2nc(N3CCN(C(=O)C4CCCO4)CC3)nc(N)c2cc1OC.Cl.O.O (stereo not shown) [Dihydrate]
Result: 26
